Source: PubChem BioAssay (NCI)

# Tested on: MDA-MB-435 melanoma
# ASSAY_TEXT: NCI-60 one-dose screen, 48 h
# CONDITION_INFO: 10 µM unless noted
About 83,000 compounds went through this panel and 20% of them were active in at least one assay; those are over-represented in the sample as a whole. The source made the active and inactive calls. Rule for the calls: active = growth percent below 10; inactive = the rest.
Classes used: 1 for active, -1 for inactive

COMPOUND: COc1cc2ncnc(-n3ncc4cc(NC(=O)Nc5ccc(Cl)c(C)c5)ccc43)c2cc1OC
CLASS_ASSIGNMENT: -1
//
COMPOUND: CCCCN(CCCC)CCCNc1c2c(nc3ccc(Cl)cc13)CCCC2
CLASS_ASSIGNMENT: -1
//
COMPOUND: CCC(CCCN1C(=O)c2ccccc2C1=O)Nc1cc(OC)cc2cccnc12 (configuration not stated)
CLASS_ASSIGNMENT: -1
//
COMPOUND: O=C(O)CC1Cc2ccccc2C1C(=O)O (configuration not stated)
CLASS_ASSIGNMENT: -1
//
COMPOUND: O=C(/C=C1\C(=O)N(Cc2ccccc2)c2ccccc21)c1ccc(OCCN2CCCCC2)cc1
CLASS_ASSIGNMENT: -1
//
COMPOUND: Cc1ccc(S(=O)(=O)Nc2cccc(Cn3c(=O)[nH]c4ccc(Oc5ncccn5)cc4c3=O)c2)cc1
CLASS_ASSIGNMENT: 1
//
COMPOUND: O=C1CCNC1
CLASS_ASSIGNMENT: -1
//
COMPOUND: Oc1ccc2ccccc2c1/C=N\Nc1ccccn1
CLASS_ASSIGNMENT: -1
//
COMPOUND: O=C(Nc1ccccc1)Nc1ccc(Nc2ncnc3sc4c(c23)CCCC4)cc1
CLASS_ASSIGNMENT: -1
//
COMPOUND: CCOC(=O)c1csc(-c2ccc(COC(=O)c3ccccc3)o2)n1
CLASS_ASSIGNMENT: -1
//
COMPOUND: Clc1ccc(N/N=C(\c2ccccc2)c2ccccn2)nc1
CLASS_ASSIGNMENT: -1
//
COMPOUND: O=C(N/N=C\c1ccc(Cl)cc1)C(=O)N/N=C\c1ccc(Cl)cc1
CLASS_ASSIGNMENT: -1
//
COMPOUND: COc1ccc(OC)c(Cn2cc3c(c2-c2ccccc2)CCc2cnoc2-3)c1
CLASS_ASSIGNMENT: 1
//
COMPOUND: CCOC(=O)c1cc(-c2ccc(OC)cc2)[nH]c1NNC(=O)CCOC
CLASS_ASSIGNMENT: -1
//
COMPOUND: O=S(=O)(Cc1cccc2c(CS(=O)(=O)c3ccc(Cl)cc3)cccc12)c1ccc(Cl)cc1
CLASS_ASSIGNMENT: -1
//
COMPOUND: COc1cc(NC(C)CCCN)c2nccc(C)c2c1OC (configuration not stated)
CLASS_ASSIGNMENT: -1
//
COMPOUND: Nc1cc(N)c2nc(-c3ccccc3)c(NCCc3ccc(Cl)c(Cl)c3)nc2c1
CLASS_ASSIGNMENT: 1
//
COMPOUND: COc1ccc(/C(=C(\c2ccccc2)[N+](=O)[O-])c2ccc(OCCN3CCCC3)cc2)cc1
CLASS_ASSIGNMENT: -1
//
COMPOUND: N=C(N)c1ccc(-c2ccc(-c3ccc(Cl)cc3)s2)s1
CLASS_ASSIGNMENT: 1
//
COMPOUND: CCOc1ccc(/C=N/NC(=O)c2cccc3ccccc23)cc1OCC
CLASS_ASSIGNMENT: -1
//
COMPOUND: Cc1c(CN(C)C)cc(C(C)C)cc1C(C)C
CLASS_ASSIGNMENT: -1
//
COMPOUND: CCCCCCCCc1ccc(OCCOCC[N+](C)(C)CC)cc1 (tested in a mixture with another compound)
CLASS_ASSIGNMENT: -1
